target: Hck (UniProt P08631)
Sequence (P08631 whole entry, looked up): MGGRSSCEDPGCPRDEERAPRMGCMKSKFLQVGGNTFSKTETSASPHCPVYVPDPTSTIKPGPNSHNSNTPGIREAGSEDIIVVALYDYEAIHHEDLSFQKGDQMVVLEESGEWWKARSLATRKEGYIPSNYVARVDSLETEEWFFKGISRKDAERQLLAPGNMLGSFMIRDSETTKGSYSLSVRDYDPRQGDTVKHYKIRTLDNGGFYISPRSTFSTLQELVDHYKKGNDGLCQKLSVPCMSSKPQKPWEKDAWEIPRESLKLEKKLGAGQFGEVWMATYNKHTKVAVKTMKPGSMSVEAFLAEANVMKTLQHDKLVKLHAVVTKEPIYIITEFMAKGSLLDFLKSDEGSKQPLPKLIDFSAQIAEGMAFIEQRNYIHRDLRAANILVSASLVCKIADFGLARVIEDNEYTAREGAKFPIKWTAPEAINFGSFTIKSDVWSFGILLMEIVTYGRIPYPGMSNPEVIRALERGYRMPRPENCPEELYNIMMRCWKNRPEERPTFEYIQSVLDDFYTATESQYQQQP
test_details: phosphorylation enrichment, bacterial display (enrichment ratio); higher = better substrate or ligand; peptides without Tyr show the background;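 note: 11-residue human phosphosite peptides and single-mutation variants displayed on the E. coli surface, counted by deep sequencing, each peptide's frequency after selection divided by its frequency in the unselected input library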;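 note: frequency after pTyr selection over input frequency; kinase dosed for 20-30% of maximal phosphorylation in three min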
experimental_readout: phosphorylation enrichment

ordered_residues: EESREYDRLYE [PIK3R1_Y463_K459E]
result_number: 0.865
//
ordered_residues: ADARMYGVHPW [PLP1_Y207_L210H]
result_number: 2.42
//
ordered_residues: RISGVYKLPPD [ANGPTL7_Y145]
result_number: 0.572
//
ordered_residues: RVAFQYGVTDL [MYBPC3_Y340_I336V]
result_number: 0.599
//
ordered_residues: KPSLKYVTYGN [GALNTL5_Y404_G401S]
result_number: 0.462
//
ordered_residues: LLIMEYAKFGS [RET_Y806_V804M_YF]
result_number: 1.59
//
ordered_residues: LIYTNYEAGKD [GSTP1_Y112]
result_number: 5.36
